Test: Neuroprotective activity in human SH-SY5Y cells assessed as reduction of H2O2-induced apoptosis at 50 uM after 24 hrs by MTT assay relative to control
Format: functional, cell-based
Design: scale not given: the % may be the effect or the level left

{"Molecule": "COc1cc(C(=O)OCCCNC(=N)NCCS)cc(OC)c1O", "Activity (%)": 93.3}
{"Molecule": "COc1cc(OC)cc(C(=O)OCCCCNC(=N)NCCS)c1", "Activity (%)": 66.1}
{"Molecule": "N=C(NCCN)NCCS", "Activity (%)": 79.2}
{"Molecule": "N=C(NCCS)NCCCO", "Activity (%)": 82.1}
{"Molecule": "COc1ccc(C(=O)OCCCCNC(=N)NCCS)cc1", "Activity (%)": 48.6}
{"Molecule": "CCC(O)CNC(=N)NCCS (configuration not stated)", "Activity (%)": 71.1}
{"Molecule": "N=C(NCCO)NCCS", "Activity (%)": 65.1}
{"Molecule": "COc1cc(C(=O)OCCCCNC(=N)NCCS)cc(OC)c1OC", "Activity (%)": 49.1}
{"Molecule": "COc1cc(C(=O)OCCCCCCNC(=N)NCCS)cc(OC)c1O", "Activity (%)": 73.8}
{"Molecule": "N=C(NCCS)NCCCCO", "Activity (%)": 70.2}
{"Molecule": "COc1cc(C(=O)OCCCCCNC(=N)NCCS)cc(OC)c1O", "Activity (%)": 65.9}
{"Molecule": "COc1cc(C(=O)OCCCCNC(=N)N)cc(OC)c1O", "Activity (%)": 46}

---

Listed below: Activity values for each entry.
Assay: Neuroprotective activity in human SH-SY5Y cells assessed as reduction of H2O2-induced apoptosis at 5 mM after 24 hrs by MTT assay relative to N-acetyl-cysteine
Type: functional, cell-based
Set-up: scale not given: the % may be the effect or the level left

{"Molecule": "COc1cc(C(=O)OC2CCC(NC(=N)NCCS)CC2)cc(OC)c1O (stereo not given)", "Activity [%]": 88.8}
{"Molecule": "COc1cc(C(=O)OCCCNC(=N)NCCS)cc(OC)c1O", "Activity [%]": 76.4}
{"Molecule": "COc1cc(C(=O)OCCCCNC(=N)N)cc(OC)c1O", "Activity [%]": 82.4}
{"Molecule": "N=C(NCCO)NCCS", "Activity [%]": 76.4}
{"Molecule": "CCC(O)CNC(=N)NCCS (stereo not given)", "Activity [%]": 88.8}
{"Molecule": "COc1cc(C(=O)OCCCCNC(=N)NCCS)cc(OC)c1OC", "Activity [%]": 82.4}
{"Molecule": "COc1cc(C(=O)OCCCCCNC(=N)NCCS)cc(OC)c1O", "Activity [%]": 76.4}
{"Molecule": "N=C(NCCS)NC1CCC(O)CC1 (stereo not given)", "Activity [%]": 82.4}
{"Molecule": "N=C(NCCS)NCCCCO", "Activity [%]": 82.4}
{"Molecule": "N=C(NCCN)NCCS", "Activity [%]": 76.4}
{"Molecule": "CC(CO)NC(=N)NCCS (stereo not given)", "Activity [%]": 88.8}
{"Molecule": "COc1ccc(C(=O)OCCCCNC(=N)NCCS)cc1", "Activity [%]": 82.4}
{"Molecule": "CC(O)CNC(=N)NCCS (stereo not given)", "Activity [%]": 88.8}
{"Molecule": "N=C(NCCS)NCCCN", "Activity [%]": 82.4}
{"Molecule": "COc1cc(C(=O)OCCCCCCNC(=N)NCCS)cc(OC)c1O", "Activity [%]": 88.8}
{"Molecule": "N=C(NCCS)NCCCCCO", "Activity [%]": 76.4}
{"Molecule": "N=C(NCCS)NCCCO", "Activity [%]": 76.4}
{"Molecule": "COc1cc(OC)cc(C(=O)OCCCCNC(=N)NCCS)c1", "Activity [%]": 88.8}
{"Molecule": "N=C(NCCS)NCCCCCCO", "Activity [%]": 82.4}
{"Molecule": "COc1cc(C(=O)OCCCCNC(=N)NCCS)cc(OC)c1O", "Activity [%]": 88.8}
